IC50 overview
target-or-system: human Nav 1.8 (Homo sapiens, UniProt Q9Y5Y9)
Sequence (Q9Y5Y9 126-399 limits assumed): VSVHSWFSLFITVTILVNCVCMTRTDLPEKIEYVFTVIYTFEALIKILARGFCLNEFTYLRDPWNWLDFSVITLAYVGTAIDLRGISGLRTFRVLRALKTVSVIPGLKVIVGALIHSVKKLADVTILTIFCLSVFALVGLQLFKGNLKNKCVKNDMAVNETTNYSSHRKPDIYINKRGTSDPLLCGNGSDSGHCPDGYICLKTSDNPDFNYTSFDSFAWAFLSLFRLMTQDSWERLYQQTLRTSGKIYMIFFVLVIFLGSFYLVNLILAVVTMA
Sequence (Q9Y5Y9 660-890 limits assumed): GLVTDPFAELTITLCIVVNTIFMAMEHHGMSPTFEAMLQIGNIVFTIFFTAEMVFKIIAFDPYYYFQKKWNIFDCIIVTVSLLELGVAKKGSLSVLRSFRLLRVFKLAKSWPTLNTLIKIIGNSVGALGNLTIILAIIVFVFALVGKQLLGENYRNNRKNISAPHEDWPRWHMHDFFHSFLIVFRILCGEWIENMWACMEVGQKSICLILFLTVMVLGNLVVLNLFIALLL
Sequence (Q9Y5Y9 1148-1722 limits assumed): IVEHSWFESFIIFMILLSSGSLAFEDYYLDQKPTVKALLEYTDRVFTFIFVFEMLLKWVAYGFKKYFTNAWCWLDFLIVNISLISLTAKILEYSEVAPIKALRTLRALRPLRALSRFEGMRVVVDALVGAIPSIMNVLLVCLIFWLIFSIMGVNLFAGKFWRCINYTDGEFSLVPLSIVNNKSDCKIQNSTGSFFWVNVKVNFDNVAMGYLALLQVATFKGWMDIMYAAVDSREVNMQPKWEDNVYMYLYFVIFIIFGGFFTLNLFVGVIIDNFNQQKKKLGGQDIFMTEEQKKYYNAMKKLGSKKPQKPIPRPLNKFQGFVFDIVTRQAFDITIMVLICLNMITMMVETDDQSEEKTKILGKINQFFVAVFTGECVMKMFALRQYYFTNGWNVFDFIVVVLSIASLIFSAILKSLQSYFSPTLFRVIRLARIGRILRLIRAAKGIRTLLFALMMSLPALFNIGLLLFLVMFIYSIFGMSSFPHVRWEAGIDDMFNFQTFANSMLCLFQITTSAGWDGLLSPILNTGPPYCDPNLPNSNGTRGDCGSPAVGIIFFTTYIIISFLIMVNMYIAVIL
method-notes: E-VIPR assay detecting and measuring Nav inhibition properties
Type: cell-based
conditions-used: HEK cells expressing a truncated form of human Nav 1.8; compound numbers without "*" (not marked as run in the presence of human serum); read-out: measured IC50 value in the E-VIPR Assay

The molecule C[C@H]1[C@@H](c2ccc(F)c(F)c2O[C@H]2C[C@@H](O)C2)[C@H](C(=O)Nc2ccc(F)c(C(N)=O)c2)O[C@@]1(C)C(F)(F)F [Compound 202] on human Nav 1.8 (Homo sapiens, UniProt Q9Y5Y9): IC50 was < 10 nM

Simply: C=C(CO)COc1c([C@H]2[C@H](C(=O)Nc3ccnc(C(N)=O)c3)O[C@@](C)(C(F)(F)F)[C@H]2C)ccc(F)c1F [Compound 132] , human Nav 1.8 (Homo sapiens, UniProt Q9Y5Y9), IC50 = < 10 nM

Let me check: C[C@H]1[C@@H](c2ccc(F)c(F)c2OC2CC(C)(O)C2)[C@H](C(=O)Nc2ccnc(C(N)=O)c2)O[C@@]1(C)C(F)(F)F (stereo partly drawn) [Compound 174] , system human Nav 1.8 (Homo sapiens, UniProt Q9Y5Y9), measured IC50 is < 10 nM

Let me check: C[C@H]1[C@@H](c2ccc(F)c(F)c2OC2CS(=O)(=O)C2)[C@H](C(=O)Nc2ccnc(C(N)=O)c2)O[C@@]1(C)C(F)(F)F [Compound 171] , system human Nav 1.8 (Homo sapiens, UniProt Q9Y5Y9), measured IC50 is 100 to 1000 nM

Simply: C[C@H]1[C@@H](c2ccc(F)c(F)c2OCC(=NO)C2CC2)[C@H](C(=O)Nc2ccnc(C(N)=O)c2)O[C@@]1(C)C(F)(F)F [Compound 182] , human Nav 1.8 (Homo sapiens, UniProt Q9Y5Y9), IC50 = < 10 nM

Per the reported human Nav 1.8 (Homo sapiens, UniProt Q9Y5Y9) data, COc1c([C@H]2[C@H](C(=O)Nc3ccnc(C(=O)N4CC5CC(C4)N5)c3)O[C@@](C)(C(F)(F)F)[C@H]2C)ccc(F)c1F [Compound 239] has IC50 of < 10 nM

Known value: human Nav 1.8 (Homo sapiens, UniProt Q9Y5Y9) IC50 of the molecule C[C@H]1[C@@H](c2ccc(F)c(F)c2OCc2cn[nH]c2)[C@H](C(=O)Nc2ccnc(C(N)=O)c2)O[C@@]1(C)C(F)(F)F [Compound 168] equals < 10 nM

Measured IC50 (human Nav 1.8 (Homo sapiens, UniProt Q9Y5Y9)), entry COc1c([C@H]2[C@H](C(=O)Nc3ccnc(C(=O)N4CC[C@H](O)C4)c3)O[C@@](C)(C(F)(F)F)[C@H]2C)ccc(F)c1F [Compound 219] : < 10 nM

Observed IC50, human Nav 1.8 (Homo sapiens, UniProt Q9Y5Y9), C[C@H]1[C@@H](c2ccc(F)c(F)c2COC2COC2)[C@H](C(=O)Nc2ccnc(C(N)=O)c2)O[C@@]1(C)C(F)(F)F [Compound 211] : < 10 nM

IC50 for human Nav 1.8 (Homo sapiens, UniProt Q9Y5Y9) with input C[C@]1(C(F)(F)F)C[C@@H](c2ccc(F)c(F)c2OCCO)[C@H](C(=O)Nc2ccnc(C(N)=O)c2)O1 (relative stereo) [Compound 33] equals 10 to 100 nM

Others:
// IC50 (human Nav 1.8 (Homo sapiens, UniProt Q9Y5Y9)) for C=C(COC)COc1c([C@H]2[C@H](C(=O)Nc3ccnc(C(N)=O)c3)O[C@@](C)(C(F)(F)F)[C@H]2C)ccc(F)c1F [Compound 135] = 10 to 100 nM

Here COc1c([C@H]2[C@H](C(=O)Nc3cc(C(=O)N4CCNCC4)ncc3F)O[C@@](C)(C(F)(F)F)[C@H]2C)ccc(F)c1F [Compound 16] was tested on human Nav 1.8 (Homo sapiens, UniProt Q9Y5Y9), and its IC50 came to 10 to 100 nM

Each recorded value in this set is attributed to patent US20250213555A1.
